System: SF-295 CNS
method-description: NCI-60 one-dose screen, 48 h (100 = growth as untreated, 0 = no growth, -100 = all killed)
particulars: 10 µM unless noted
This is part of a sample that, as a whole, favours compounds with a hit. Of some 83,000 tested, about 20% had one in any assay.
Classes based on growth: class 1 = under 40%, class 2 = from 40% up to 80%, class 3 = 80% and over

compound: CC(=O)[C@@H]1CC[C@]2(C(=O)O)CC[C@]3(C)[C@H](CC[C@@H]4[C@@]5(C)Cc6c([nH]c7ccccc67)C(C)(C)[C@@H]5CC[C@]43C)[C@@H]12
label: class 1
//
compound: CC(=O)O[C@@H]1C[C@]2(C)[C@H]3[C@H](O)C[C@@H]4C5=CC(C)(C)CC[C@]5(C)CC[C@@]4(C)[C@]3(C)CC[C@H]2C(C)(C)[C@H]1O
label: class 3
//
compound: COc1cc(NCC(=O)Nc2cc(Nc3ccc(C)cc3)ncn2)c(Cl)c(OC)c1Cl
label: class 3

Please find the next compound below.
-- ask Where would `Cc1cnc(-c2ccc(-c3ccc(NC(=O)Nc4c(F)cc(F)cc4F)cc3F)c3c2C(=O)NC3)[nH]1` land among the classes by reported growth?
-- reply class 2

---

System: BT-549 breast
method-description: NCI-60 one-dose screen, 48 h (100 = growth as untreated, 0 = no growth, -100 = all killed)
particulars: 10 µM unless noted
About 83,000 compounds went through this panel and 20% of them were active in at least one assay; those are over-represented in the sample as a whole.
The label is criterion met for growth below 70% and criterion not met for growth equal to or exceeding 70%.

Some entries whose results are on file:
compound: Cc1nccc2c3ccc(OCc4cn(-c5ccc(Br)cc5)nn4)cc3n(CC(C)C)c12
label: criterion met
--
compound: Nc1c(C(=O)Nc2ccccn2)sc2nc3c(cc12)CCCC3
label: criterion met
--
compound: COC(=O)/C=C/c1cc(OC)c2c(c1)[C@@H](C(=O)OC)[C@H](c1ccc(OC)c(OC)c1)O2
label: criterion met

-- ask A record lists Cc1nc2sc(C(=O)Nc3ccccc3Cl)c(N)c2cc1C(C)O (stereo unspecified) . Is its growth below 70%?
-- reply criterion not met

-- ask Try this compound too: `Cc1c(C(=O)Nc2nc3ccccc3[nH]2)cnn1-c1ccccn1`
-- reply criterion not met

-- ask Try this compound too: Cc1nc2sc(C(=O)Nc3ccccc3)c(N)c2cc1C(C)O (stereo unspecified)
-- reply criterion not met

---

Test system: HCT-116 colon
method-description: NCI-60 one-dose screen, 48 h
particulars: 10 µM unless noted
About 83,000 compounds went through this panel and 20% of them were active in at least one assay; those are over-represented in the sample as a whole. Activity calls are given as the source filed them. Rule for the calls: active = growth percent below 10; inactive = the rest.
// allowed return values: YES for active, NO for inactive

molecule: Cc1cc(C)c(NC(=O)c2sc3nc4c(cc3c2N)CCCCCC4)c(C)c1
label: NO
--
molecule: O=C(CCCC(=O)Nc1ccc(-n2nnc3cc(Cl)c(Cl)cc32)cc1)Nc1ccc(-n2nnc3cc(Cl)c(Cl)cc32)cc1
label: NO
--
molecule: COc1ccc(/C=C/C(=O)c2ccc(NC(=O)CSc3nnc(-c4ccc(OC)c(OC)c4)n3-c3ccccc3)cc2)cc1
label: YES

-- ask In this assay, the call recorded for `COC(=O)CCc1cc(O)c2c(c1)[C@@H](C(=O)OC)[C@H](c1ccc(O)c(O)c1)O2` was what?
-- reply NO

-- ask Try this molecule too: `Cc1c(Cl)cccc1NC(=O)c1sc2nc3c(cc2c1N)CN(Cc1ccccc1)CC3`
-- reply NO

-- ask Try this molecule too: `Nc1c(C(=O)Nc2cccc3ccccc23)sc2nc3c(cc12)CCCCCC3`
-- reply YES

-- ask Try this molecule too: `Cc1ccc2nc3nc4ccc[nH]c4cc3c2c1`
-- reply NO

-- ask Try this molecule too: `CCN1CCN(Cc2ccc(NC(=O)c3cccc(C#Cc4cccc5[nH]nc(N)c45)c3)cc2C(F)(F)F)CC1`
-- reply YES

-- ask Try this molecule too: `O=C1NCc2ccc3c(-c4cccc(Cl)c4)c[nH]c3c21`
-- reply NO

-- ask Try this molecule too: `COc1cc(C(=O)N2CCN(c3ccccc3OC)CC2)c(NC(=O)c2cnccn2)cc1OCc1ccccc1`
-- reply NO

-- ask Try this molecule too: `COc1ccc([C@H]2[C@@H](F)C(=O)N2c2cc(OC)c(OC)c(OC)c2)cc1F`
-- reply YES

-- ask Try this molecule too: `CC(=O)c1cc2c(N)c(C(=O)Nc3ccccn3)sc2nc1C`
-- reply NO

-- ask Try this molecule too: O=C1CC(c2ccc(O)c(O)c2)Oc2cc(O)c([C@@H]3O[C@H](CO)[C@@H](O)[C@H](O)[C@H]3O)c(O)c21 (stereo partly drawn)
-- reply NO

-- ask Try this molecule too: `C#C[C@@]1(O)[C@@H](CO)O[C@@H](n2cc(Cl)c3c(N)ncnc32)[C@@H]1O`
-- reply YES

-- ask Try this molecule too: `CCn1cc(C(=O)O)c(=O)c2cc(F)c(N3CCN(CC(=O)Nc4ccc(/C(C)=N/OC)cc4)CC3)cc21`
-- reply NO

-- ask Try this molecule too: `COc1ccc2oc(=O)cc(-c3c(C#N)c(N)n4nc(N)c(C#N)c4c3C#N)c2c1`
-- reply NO

-- ask Try this molecule too: `NS(=O)(=O)c1ccc(-n2ncc(NC(=O)Nc3ccc(S(=O)(=O)Nc4nccs4)cc3)c2-c2ccccc2)cc1`
-- reply NO

-- ask Try this molecule too: `C#C[C@@]1(O)[C@@H](CO)O[C@@H](n2cnc3c(-c4ccccc4)ncnc32)[C@@H]1O`
-- reply NO

---

Tested on: NCI-H522 lung
method-description: NCI-60 one-dose screen, 48 h (100 = growth as untreated, 0 = no growth, -100 = all killed)
particulars: 10 µM unless noted
The panel holds about 83,000 compounds, 20% with a hit somewhere; the sample as a whole holds those more often.
measure: growth (%)
Expressed in %, but write only the number.

Known growth results, listed for orientation:
smiles-code: Oc1c(CCl)cc(Cl)cc1Cc1cc(Cl)cc(Cc2cc(Cl)cc(CCl)c2O)c1O
growth, %: -10.9
//
smiles-code: O=c1c2ccccc2oc2ccc(OCCCCCCN3CCCCCC3)cc12
growth, %: 46
//
smiles-code: CC1(C)CC[C@]2(c3nnc(-c4ccncc4)o3)CC[C@]3(C)C(=CC[C@@H]4[C@@]5(C)CCC(=O)C(C)(C)[C@@H]5CC[C@]43C)[C@@H]2C1
growth, %: 71.2

Read the next record carefully.
-- ask # lookup: growth of `COCCOCCOCc1n(Cc2ccc3ccccc3n2)c2ccccc2[n+]1Cc1ccc2ccccc2n1`
-- reply -1.7

---

Tested on: OVCAR-5 ovarian
method-description: NCI-60 one-dose screen, 48 h
particulars: 10 µM unless noted
About 83,000 compounds went through this panel and 20% of them were active in at least one assay; those are over-represented in the sample as a whole. Active and inactive are the calls of the source. How the source made its calls: active means growth percent below 10; inactive means the rest.
// allowed return values: T for active, F for inactive

molecule: Cc1ccc2nc3nc4ccc[nH]c4cc3c2c1
label: F
//
molecule: COC(=O)c1ccc2c(c1)n(Cc1ccc3ccccc3c1)c[n+]2Cc1ccc2ccccc2c1
label: F
//
molecule: COC(=O)CCc1n(Cc2ccc3ccccc3c2)c2ccccc2[n+]1Cc1ccc2ccccc2c1
label: F

-- ask In this assay, the call recorded for COc1cc(C2=NNC(c3ccc(N(C)C)cc3)C2)cc(OC)c1OC (stereo not given) was what?
-- reply F

-- ask Try this molecule too: `Nc1c(C(=O)Nc2cccc3ccccc23)sc2nc3c(cc12)CCCCC3`
-- reply F

-- ask Try this molecule too: `CCCCc1ccc(N=Nc2ccc(OCC[N+](C)(C)C)cc2)cc1`
-- reply F

-- ask Try this molecule too: `CCC1=C[C@H]2CN(CCc3c([nH]c4ccccc34)[C@@](C(=O)OC)(c3cc4c(cc3OC)N(C)[C@H]3[C@@](O)(C(=O)OC)[C@H](OC(C)=O)[C@]5(CC)[C@@H]6C[C@@H]6CN6CC[C@]43[C@@H]65)C2)C1`
-- reply F

-- ask Try this molecule too: `C#CCN(CCCOc1ccc(Cl)cc1Cl)CCCSC(=O)CCCCCN1/C(=C\C=C2/CCCC(/C=C/C3=[N+](CCCCCC(=O)[O-])c4ccccc4C3(C)C)=C2Cl)C(C)(C)c2ccccc21`
-- reply F

-- ask Try this molecule too: `C[C@H]1[C@H](C)CC[C@]2(C(=O)OCCOCCOCC[P+](c3ccccc3)(c3ccccc3)c3ccccc3)CC[C@]3(C)C(=CC[C@@H]4[C@@]5(C)CC[C@H](OC(=O)C(Cl)Cl)C(C)(C)[C@@H]5CC[C@]43C)[C@H]12`
-- reply F

-- ask Try this molecule too: `C#C[C@@]1(O)[C@@H](CO)O[C@@H](n2cc(Cl)c3c(N)ncnc32)[C@@H]1O`
-- reply F

-- ask Try this molecule too: `COc1ccc(C(=O)c2cc(OC)c(C)c(OC)c2)cc1OC(=O)CCl`
-- reply F

-- ask Try this molecule too: `COc1ccc2nc(-c3ccc(Cl)cc3)cc(-c3nnc(SC/C(=N/O)c4ccccc4)o3)c2c1`
-- reply F

-- ask Try this molecule too: Nc1ccc(C2=NN(C(=O)c3cc(-c4ccc(Cl)cc4)nc4ccccc34)C(c3ccc(Cl)cc3)C2)cc1 (stereo not given)
-- reply F

-- ask Try this molecule too: `O=C(CN1N=C(c2ccc(F)cc2)CCC1=O)Nc1nccs1`
-- reply F

-- ask Try this molecule too: `C=C1C(=O)O[C@H]2[C@H]1CC/C(COC(=O)NCC(=O)Nc1ccc(OC)c(C(N)=O)c1O)=C\CC[C@@]1(C)O[C@@H]21`
-- reply F

-- ask Try this molecule too: `O=C(Nc1cc(Br)ccn1)c1cc2cc(Nc3nc(-c4ccccc4)nc4ccccc34)ccc2oc1=O`
-- reply F

-- ask Try this molecule too: `CC(=O)c1cnc(-c2ccccc2)nc1CBr`
-- reply F

-- ask Try this molecule too: COc1ccc(C2CC(c3ccc(OC)cc3O)=NN2c2ccc(S(N)(=O)=O)cc2)cc1 (stereo not given)
-- reply F

-- ask Try this molecule too: `Cn1cc(-c2ccc3c(c2)ncn3-c2ccc(CC(=O)Nc3cc(C(C)(C)C)on3)cc2)cn1`
-- reply F

-- ask Try this molecule too: `Nc1cc(N)nc(SCC(=O)O)n1`
-- reply F

-- ask Try this molecule too: `O=C1Nc2ccc(Br)cc2/C1=N\N=C/c1cn(Cc2ccccc2)c2ccccc12`
-- reply F

-- ask Try this molecule too: `COc1cc(/C=C/C(=O)/C=C/c2cc3ccc(Cl)cc3[nH]c2=O)ccc1O`
-- reply F

-- ask Try this molecule too: `O=C(C[n+]1cccc2cc(Cl)ccc21)c1ccc2c(c1)CCCC2`
-- reply F

-- ask Try this molecule too: CC1CCCN(CCCCCOc2ccc3oc4ccc(Cl)cc4c(=O)c3c2)C1 (stereo not given)
-- reply F

-- ask Try this molecule too: `COC(=O)c1ccc2c(c1)NC(=O)[C@@H]1CCCN21`
-- reply F
